# target-entity: Genome polyprotein (Dengue virus type 2 (strain Thailand/16681/1984), UniProt P29990)
# assay-protocol: Inhibition of DENV2 NS2B-NS3 serine protease expressed in human Huh7 cells after 3 days by luciferase reporter gene assay
measurement-type: EC50 (µM)
Give bare numbers, in µM.

Form field: EC50 recorded for CC(=O)O[C@H]1CC(C)(C)C(=C=C/C(C)=C/C=C/C=C/C=C(C)/C=C2C=C(/C=C/[C@@]34O[C@]3(C)C[C@@H](O)CC4(C)C)C(=O)O/2)[C@](C)(O)C1 with Genome polyprotein (Dengue virus type 2 (strain Thailand/16681/1984), UniProt P29990) (enter value)
4.5
